# key: entry, value: OD450
- TARGET OR TEST SYSTEM: T1, Peptide 4: Biotin-AGGGGSGGGGSGGGGSAAA-Tyr-acid (N-terminal biotin; C-terminal acid; no PC)
- T1 construct: control peptide without PC
- T1 peptide: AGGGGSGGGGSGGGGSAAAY
- EXPERIMENTAL DETAILS: scFv ELISA
Give just the numeric value; OD450 need not be written.

[
  {
    "BINDER": "PcOxP_DB01_G04 (scFv, V domains shown, scFv in periplasmic extract) VH: EVQLLESGGGLVQPGGSLRLSCAASGFTFSDGYMEWVRQAPGKGLEWVAASRNKANDYTTEYADSVKGRFTISRDNSKNTLYLQMNSLRAEDTAVYYCARDYYGSSYWYFDVWGQGTLVTVSS VL: DIVMTQSPDSLAVSLGERATINCTASESLYSSKHKVHYLAWYQQKPGQPPKLLIYGASNRYSGVPDRFSGSGSGTDFTLTISSLQAEDVAVYYCAQFYSYPLTFGGGTKVEIK",
    "UNIT ABBREVIATION": "OD450",
    "OD450": 0.05
  },
  {
    "BINDER": "PcOxP_DB02_D03 (scFv, V domains shown, scFv in periplasmic extract) VH: EVQLLESGGGLVQPGGSLRLSCAASGFTQSDFYMEWVRQAPGKGLEWVAASRNKANAYTTEYADSVKGRFTISRDNSKNTLYLQMNSLRAEDTAVYYCARDYYGYSYWYFDVWGQGTLVTVSS VL: DIVMTQSPDSLAVSLGERATINCTASESLYSSKHKVHYLAWYQQKPGQPPKLLIYGNSNRYIGVPDRFSGSGSGTDFTLTISSLQAEDVAVYYCGQFYSYPLTFGGGTKVEIK",
    "UNIT ABBREVIATION": "OD450",
    "OD450": 0.04
  }
]

Could you now look at the following binder, please?
OD450 recorded for this binder, PcOxP_DB04_C08 (scFv, V domains shown, scFv in periplasmic extract) VH: EVQLLESGGGLVQPGGSLRLSCAASGETFSDFYMEWVRQAPGKGLEWVAASRNKANDYTTEYADSVKGRFTISRDNSKNTLYLQMNSLRAEDTAVYYCARDYYGSSYWYFDVWGQGTLVTVSS VL: DIQMTQSPSSLSASVGDRVTITCTASESLYSSKHGVHYLAWYQQKPGKAPKLLIYGASNRYIGVPSRFSGSGSGTDFTLTISSLQPEDFATYYCAQFYQYPLTFGGGTKVEIK , is 0.05
